These data points were gathered from patent US10927123B2.

Parameter pIC50: see the listing below.
Target: Beta-3 Adrenergic Receptor (Homo sapiens (Human), UniProt P13945)
Sequence (P13945 whole entry, species assumed): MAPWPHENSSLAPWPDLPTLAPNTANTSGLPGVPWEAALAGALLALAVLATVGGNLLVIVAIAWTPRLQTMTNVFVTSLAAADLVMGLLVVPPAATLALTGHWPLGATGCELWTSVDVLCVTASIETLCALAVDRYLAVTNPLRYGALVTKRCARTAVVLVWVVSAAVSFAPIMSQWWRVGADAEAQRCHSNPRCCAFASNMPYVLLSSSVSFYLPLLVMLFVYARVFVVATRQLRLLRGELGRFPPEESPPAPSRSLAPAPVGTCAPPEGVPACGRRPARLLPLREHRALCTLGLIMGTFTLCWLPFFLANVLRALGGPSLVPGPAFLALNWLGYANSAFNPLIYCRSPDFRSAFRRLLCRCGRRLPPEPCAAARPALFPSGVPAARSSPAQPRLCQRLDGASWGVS
Test: HTRF cAMP antagonist assay (IC50 determination)
Details: CHO-K1 cells stably expressing recombinant receptor; antagonism of isoproterenol at EC90; cAMP readout
FYI, pIC50 means -log10 of a concentration in mol per litre.

Please review the entries below; each comes with its answer.
Cc1ccc(-c2cccc(S(=O)(=O)N3CCC4(CC3)C[C@@H](NC[C@H](O)COc3cccc(S(=O)(=O)CCO)c3)CO4)c2)nc1 : 6.81
Cn1cc(-c2cccc(S(=O)(=O)N3CCC4(CC3)CC(NC[C@H](O)COc3cccc(S(C)(=O)=O)c3)CO4)c2)cn1 (some centres unmarked) : 7.69
O=S(=O)(c1cccc(-c2ccc(CN3CCOCC3)cc2)c1)N1CCC2(CC1)C[C@H](NC[C@H](O)COc1cccc(S(=O)(=O)C3(CO)CC3)c1)CO2 : 7.32
NCc1ccc(-c2cc(S(=O)(=O)N3CCC4(CC3)C[C@H](NC[C@H](O)COc3cccc(S(=O)(=O)C5(CO)CC5)c3)CO4)ccc2F)cc1 : 7.53
CCOc1ccc(-c2ccc(CNC(C)C)cc2)cc1S(=O)(=O)N1CCC2(CC1)C[C@@H](NC[C@H](O)COc1cccc(S(=O)(=O)C3(CO)CC3)c1)CO2 : 7.19
O=S(=O)(c1cccc(OC[C@@H](O)CN[C@H]2COC3(CCN(S(=O)(=O)c4cnc5ccccc5c4)CC3)C2)c1)C1CC(O)C1 (some centres unmarked) : 6.98
CCCCNCc1ccc(-c2cccc(S(=O)(=O)N3CCC4(CC3)C[C@H](NC[C@H](O)COc3cccc(S(=O)(=O)C5(CO)CC5)c3)CO4)c2)cc1 : 7.74
O=S(=O)(CCO)c1cccc(OC[C@@H](O)CN[C@H]2COC3(CCN(S(=O)(=O)c4ccc(-c5ccncc5)cc4)CC3)C2)c1 : 6.33
COc1ccc(S(=O)(=O)N2CCC3(CC2)C[C@@H](NC[C@H](O)COc2cccc(S(=O)(=O)C4CC4)c2)CO3)cc1-c1ccc(C2(N)CC2)cc1 : 7.55
CS(=O)(=O)Cc1cccc(OC[C@@H](O)CN[C@H]2COC3(CCN(S(=O)(=O)c4ccc5ncccc5c4)CC3)C2)c1 : 6.99

Problem: Need pIC50, item CS(=O)(=O)Cc1cccc(OC[C@@H](O)CNC2COC3(CCN(S(=O)(=O)c4ccc5ccccc5c4)CC3)C2)c1 (some centres unmarked)
Solution: 7.84

Problem: Need pIC50, item CN1CCOc2cc(C(=O)N3CCC4(CC3)CC(NC[C@H](O)COc3cccc(S(C)(=O)=O)c3)CO4)ccc21 (some centres unmarked)
Solution: 6.04

Problem: Need pIC50, item COc1ccc(S(=O)(=O)N2CCC3(CC2)C[C@@H](NC[C@H](O)COc2cccc(S(=O)(=O)C4(CO)CC4)c2)CO3)cc1-c1ccc(CN)cc1
Solution: 7.46

Problem: Need pIC50, item COc1ccc(S(=O)(=O)N2CCC3(CC2)C[C@H](NC[C@H](O)COc2cccc(S(=O)(=O)C4CC4)c2)CO3)cc1-c1ccc(CN)cc1
Solution: 7.75

Problem: Need pIC50, item CCS(=O)(=O)c1cccc(OC[C@@H](O)CN[C@H]2COC3(CCN(S(=O)(=O)c4ccc5ccccc5c4)CC3)C2)c1
Solution: 8.28

Problem: Need pIC50, item CC(C)S(=O)(=O)c1cccc(OC[C@@H](O)CN[C@H]2COC3(CCN(S(=O)(=O)c4cnc5c(c4)N(C)CCO5)CC3)C2)c1
Solution: 7.73

Problem: Need pIC50, item O=S(=O)(c1cccc(OC[C@@H](O)CN[C@H]2COC3(CCN(S(=O)(=O)c4cnc5c(c4)CCCC5)CC3)C2)c1)C1CC1
Solution: 7.62
